Listing: ΔG of selected binders
# system under test: T1, CXCL121 (constitutively monomeric CXCL12 variant, L55C/I58C) (Felis catus (Cat) (Felis silvestris …, UniProt O62657 22-89, engineered disulfide between Cys55 and Cys58))
# T1 construct: also called CXCL12 locked monomer; LM
# T1 sequence (O62657 22-89 L76C/I79C limits assumed): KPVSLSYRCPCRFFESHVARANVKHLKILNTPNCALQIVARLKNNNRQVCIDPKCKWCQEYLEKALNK
# experiment: ΔG = -RT ln Kd at 298 K from the NMR titration
Non-standard residues stand in square brackets, D forms with d. sY = N[C@@H](Cc1ccc(OS(=O)(=O)O)cc1)C(=O)O
value kind: ΔG (kcal/mol)

1) Ac-ISIYTSD-NH2 (Synthetic CXCR4 heptapeptide, residues 4-10; also called CXCR4 Ile4-Asp10 heptapeptide) [4ISIYTSD10 (unsulfated Tyr7 peptide)]
-4.03
2) Ac-SGDYDSM-NH2 (Synthetic CXCR4 heptapeptide, residues 18-24; also called unsulfated Tyr21 peptide) [18SGDYDSM24 (Tyr21 peptide)]
-3.85
3) GMMEGISIYTSDNYTEEMGSGDYDSMKEPAFREENANFNK (range 1-38; Unsulfated recombinant peptide; also called CXCR4 N-terminal domain; CXCR1-38) [CXCR41-38 (first 38 amino acids of CXCR4 preceded by a GlyMet dipeptide tag)]
-7.43
4) Ac-SGD[sY]DSM-NH2 (SMILES CSCC[C@H](NC(=O)[C@H](CO)NC(=O)[C@H](CC(=O)O)NC(=O)[C@H](Cc1ccc(OS(=O)(=O)O)cc1)NC(=O)[C@H](CC(=O)O)NC(=O)CNC(=O)[C@H](CO)NC(C)=O)C(N)=O, Synthetic CXCR4 heptapeptide, residues 18-24; also called sulfated Tyr21 peptide) [18SGDsYDSM24 (sTyr21 sulfopeptide)]
-3.81
5) Ac-SDNYTEE-NH2 (Synthetic CXCR4 heptapeptide, residues 9-15; also called unsulfated Tyr12 peptide) [9SDNYTEE15 (Tyr12 peptide)]
-3.5
6) Ac-ISI[sY]TSD-NH2 (SMILES CC[C@H](C)[C@H](NC(C)=O)C(=O)N[C@@H](CO)C(=O)N[C@H](C(=O)N[C@@H](Cc1ccc(OS(=O)(=O)O)cc1)C(=O)N[C@H](C(=O)N[C@@H](CO)C(=O)N[C@@H](CC(=O)O)C(N)=O)[C@@H](C)O)[C@@H](C)CC, Synthetic CXCR4 heptapeptide, residues 4-10) [4ISIsYTSD10 (sTyr7 sulfopeptide)]
-3.02
7) Ac-SDN[sY]TEE-NH2 (SMILES CC(=O)N[C@@H](CO)C(=O)N[C@@H](CC(=O)O)C(=O)N[C@@H](CC(N)=O)C(=O)N[C@@H](Cc1ccc(OS(=O)(=O)O)cc1)C(=O)N[C@H](C(=O)N[C@@H](CCC(=O)O)C(=O)N[C@@H](CCC(=O)O)C(N)=O)[C@@H](C)O, Synthetic CXCR4 heptapeptide, residues 9-15) [9SDNsYTEE15 (sTyr12 sulfopeptide)]
-3.74
